# TGT: T1, Mouse PD-L2-Fc (mouse, UniProt Q9WUL5 20-219, limits assumed)
# T1 construct: also called murine PD-L2; not shown: Fc
# T1 sequence (looked up): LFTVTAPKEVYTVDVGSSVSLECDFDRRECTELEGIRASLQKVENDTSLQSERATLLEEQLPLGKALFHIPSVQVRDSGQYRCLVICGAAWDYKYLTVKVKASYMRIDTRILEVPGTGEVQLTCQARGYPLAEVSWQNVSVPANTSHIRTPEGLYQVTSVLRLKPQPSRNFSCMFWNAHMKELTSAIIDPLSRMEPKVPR
# ASSAY_EXPLANATION: ForteBio, IgG, avid
MEASUREMENT_LABEL: pKd
In plain terms, pKd is the concentration in mol/L turned into minus its base-10 logarithm.

Query: Which pKd value belongs to BiPDL3-14 (antibody, V domains shown, IgG; also called ADI-37464; 37464) VH: QVQLQQWGAGLLKPSETLSLTCAVYGGSLSGYPWSWIRQPPGKGLEWIGETDVSGWTDYNPSLKSRVTISVDTSKNQFSLKLSSVTAADTAVYYCARDGRRMGTPSFDIWGQGTMVTVSS VL: DIQMTQSPSSVSASVGDRVTITCRASQGINSFLAWYQQKPGKAPKLLIYAASSLNSGVPSRFSGSGSGTDFTLTISSLQPEDFATYYCQKAVYFPPTFGGGTKVEIK ?
Response: 9.27

Query: Which pKd value belongs to BiPDL3-44 (antibody, V domains shown, IgG; also called ADI-37475; 37475) VH: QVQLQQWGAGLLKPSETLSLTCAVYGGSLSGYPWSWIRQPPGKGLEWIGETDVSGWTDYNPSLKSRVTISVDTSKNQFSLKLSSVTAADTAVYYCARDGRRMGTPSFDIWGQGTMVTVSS VL: DIQMTQSPSSVSASVGDRVTITCRASQGISTFLAWYQQKPGKAPKLLIYAASALHSGVPSRFSGSGSGTDFTLTISSLQPEDFATYYCQRAVYFPPTFGGGTKVEIK ?
Response: 9.26

Query: Which pKd value belongs to BiPDL3-24 (antibody, V domains shown, IgG; also called ADI-37465; 37465) VH: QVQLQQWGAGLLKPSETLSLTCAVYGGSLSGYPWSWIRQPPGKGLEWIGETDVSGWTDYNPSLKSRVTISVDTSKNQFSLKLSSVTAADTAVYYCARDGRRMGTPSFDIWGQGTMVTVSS VL: DIQMTQSPSSVSASVGDRVTITCRASQGISNFLAWYQQKPGKAPKLLIYAASSLQSGVPSRFSGSGSGTDFTLTISSLQPEDFATYYCQKAVYFPPTFGGGTKVEIK ?
Response: 9.26

Query: Which pKd value belongs to BiPDL3-34 (antibody, V domains shown, IgG; also called ADI-37468; 37468) VH: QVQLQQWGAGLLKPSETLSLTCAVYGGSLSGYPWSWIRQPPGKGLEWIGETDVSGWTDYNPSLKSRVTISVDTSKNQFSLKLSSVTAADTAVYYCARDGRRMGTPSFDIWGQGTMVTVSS VL: DIQMTQSPSSVSASVGDRVTITCRASQDISSFLAWYQQKPGKAPKLLIYAASSLQDGVPSRFSGSGSGTDFTLTISSLQPEDFATYYCQKSVYFPPTFGGGTKVEIK ?
Response: 9.32
